Parameter: IC50. Scope: all listed entries.
molecular target: Muscarinic acetylcholine receptor; assay: Binding affinity was determined against Muscarinic acetylcholine receptor using [3H]QNB as radioligand in rat brain.; type: tissue-based
Endpoint Name: IC50

{"Mol": "C=C1c2ccccc2C=C(N2CCN(C)CC2)c2cc(Cl)ccc21", "Endpoint Name": "IC50", "Val": "330 nM"}
{"Mol": "C=C1c2ccccc2C=C(N2CCN(C)CC2)c2ccccc21", "Endpoint Name": "IC50", "Val": "150 nM"}
{"Mol": "CC(C)=C1c2ccccc2C=C(N2CCN(C)CC2)c2ccccc21", "Endpoint Name": "IC50", "Val": "415 nM"}
{"Mol": "CC(C)=C1c2ccccc2C=C(N2CCN(C)CC2)c2cc(Cl)ccc21", "Endpoint Name": "IC50", "Val": "297 nM"}
{"Mol": "CC(C)=C1c2ccc(Cl)cc2C=C(N2CCN(C)CC2)c2ccccc21", "Endpoint Name": "IC50", "Val": "1750 nM"}
{"Mol": "C=C1c2ccc(Cl)cc2C=C(N2CCN(C)CC2)c2ccccc21", "Endpoint Name": "IC50", "Val": "248 nM"}

----------
biological target: D(2) dopamine receptor (Rattus norvegicus, UniProt P61169); assay: Binding affinity for Dopamine receptor D2 using [3H]spiperone in rat brain
Sequence (P61169 whole entry): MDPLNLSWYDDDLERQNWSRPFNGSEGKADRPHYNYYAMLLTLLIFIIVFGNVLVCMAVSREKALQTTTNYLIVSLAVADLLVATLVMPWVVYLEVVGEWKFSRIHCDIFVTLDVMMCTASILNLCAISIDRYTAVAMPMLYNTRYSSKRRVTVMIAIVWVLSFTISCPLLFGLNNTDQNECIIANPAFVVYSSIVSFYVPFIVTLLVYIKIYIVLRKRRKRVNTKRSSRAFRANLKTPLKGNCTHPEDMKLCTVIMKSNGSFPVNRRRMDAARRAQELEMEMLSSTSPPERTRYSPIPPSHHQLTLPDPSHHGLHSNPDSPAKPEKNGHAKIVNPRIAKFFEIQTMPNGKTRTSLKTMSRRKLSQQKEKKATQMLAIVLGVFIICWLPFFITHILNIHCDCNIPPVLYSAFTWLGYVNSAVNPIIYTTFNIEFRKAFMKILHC
Endpoint Name: log10(IC50) (log10 of the value in nM)

{"Mol": "CC(C)=C1c2ccc(Cl)cc2C=C(N2CCN(C)CC2)c2ccccc21", "Tgt": "D(2) dopamine receptor (Rattus norvegicus, UniProt P61169)", "Endpoint Name": "log10(IC50)", "Val": 3.70}
{"Mol": "C=C1c2ccc(Cl)cc2C=C(N2CCN(C)CC2)c2ccccc21", "Tgt": "D(2) dopamine receptor (Rattus norvegicus, UniProt P61169)", "Endpoint Name": "log10(IC50)", "Val": 2.48}
{"Mol": "C=C1c2ccccc2C=C(N2CCN(C)CC2)c2cc(Cl)ccc21", "Tgt": "D(2) dopamine receptor (Rattus norvegicus, UniProt P61169)", "Endpoint Name": "log10(IC50)", "Val": 1.43}
{"Mol": "CC(C)=C1c2ccccc2C=C(N2CCN(C)CC2)c2ccccc21", "Tgt": "D(2) dopamine receptor (Rattus norvegicus, UniProt P61169)", "Endpoint Name": "log10(IC50)", "Val": 3.68}
{"Mol": "C=C1c2ccccc2C=C(N2CCN(C)CC2)c2ccccc21", "Tgt": "D(2) dopamine receptor (Rattus norvegicus, UniProt P61169)", "Endpoint Name": "log10(IC50)", "Val": 2.48}

----------
target: D(1A) dopamine receptor (Rattus norvegicus); assay: Binding affinity against Dopamine receptor D1 using […] in rat brain
Sequence (P18901 whole entry): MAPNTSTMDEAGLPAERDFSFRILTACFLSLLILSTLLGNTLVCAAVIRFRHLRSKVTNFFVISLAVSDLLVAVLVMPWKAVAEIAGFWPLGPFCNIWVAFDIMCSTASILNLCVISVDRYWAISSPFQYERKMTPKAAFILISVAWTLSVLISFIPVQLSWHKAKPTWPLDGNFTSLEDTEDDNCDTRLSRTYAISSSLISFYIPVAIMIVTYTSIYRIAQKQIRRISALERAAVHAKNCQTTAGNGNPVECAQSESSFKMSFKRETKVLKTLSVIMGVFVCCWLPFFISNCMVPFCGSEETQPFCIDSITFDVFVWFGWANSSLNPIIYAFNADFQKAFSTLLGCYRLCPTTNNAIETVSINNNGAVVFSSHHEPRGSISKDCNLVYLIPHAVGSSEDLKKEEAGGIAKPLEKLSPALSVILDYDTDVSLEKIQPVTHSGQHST
Endpoint Name: IC50 (nM)

{"Mol": "C=C1c2ccc(Cl)cc2C=C(N2CCN(C)CC2)c2ccccc21", "Endpoint Name": "IC50", "Val": 51}
{"Mol": "CC(C)=C1c2ccccc2C=C(N2CCN(C)CC2)c2ccccc21", "Endpoint Name": "IC50", "Val": 540}
{"Mol": "C=C1c2ccccc2C=C(N2CCN(C)CC2)c2cc(Cl)ccc21", "Endpoint Name": "IC50", "Val": 8}
{"Mol": "CC(C)=C1c2ccc(Cl)cc2C=C(N2CCN(C)CC2)c2ccccc21", "Endpoint Name": "IC50", "Val": 443}
{"Mol": "C=C1c2ccccc2C=C(N2CCN(C)CC2)c2ccccc21", "Endpoint Name": "IC50", "Val": 21}
{"Mol": "CC(C)=C1c2ccccc2C=C(N2CCN(C)CC2)c2cc(Cl)ccc21", "Endpoint Name": "IC50", "Val": 133}
